B1: VH:VL chains; a variant is named by its letters at X, in order (parent)
chain 1: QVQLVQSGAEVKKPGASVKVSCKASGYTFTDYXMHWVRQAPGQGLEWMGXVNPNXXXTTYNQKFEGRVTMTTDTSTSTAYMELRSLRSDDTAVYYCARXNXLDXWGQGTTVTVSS
chain 2: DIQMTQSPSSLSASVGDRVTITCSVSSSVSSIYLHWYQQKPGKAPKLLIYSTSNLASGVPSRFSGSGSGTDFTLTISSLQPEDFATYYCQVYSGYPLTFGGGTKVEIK

variants of: B1; experiment: yeast display scFab, FACS + sequencing
Assay metric: non-specific binding call

>>> readout_value("FGRGTSGD")
"binds"
>>> readout_value("VATGGYAV")
"no binding"
>>> readout_value("VTAGDDVY")
"no binding"
>>> readout_value("YRAKGAAD")
"binds"
>>> readout_value("SKKGDFWV")
"binds"
>>> readout_value("FKGRGAWV")
"binds"
>>> readout_value("YRGTGAGV")
"binds"
>>> readout_value("VRGRDDSA")
"no binding"
>>> readout_value("YRGGGSGS")
"binds"
>>> readout_value("VGATSFSA")
"binds"
>>> readout_value("FARGGDAV")
"no binding"
>>> readout_value("DRGGDDVV")
"no binding"
>>> readout_value("STAESSSF")
"no binding"
>>> readout_value("FRRGDALD")
"binds"
>>> readout_value("FKGRGSLS")
"binds"
>>> readout_value("YRGKGAGF")
"binds"
>>> readout_value("FRGGDSAD")
"binds"
>>> readout_value("YRGKDALA")
"binds"
>>> readout_value("YRGRGVGD")
"binds"
>>> readout_value("DRGRGDVV")
"no binding"
>>> readout_value("FKTGDAWS")
"binds"
>>> readout_value("SAARDFWV")
"no binding"
>>> readout_value("YKGGSSAA")
"binds"
>>> readout_value("AKTKSDVA")
"no binding"
>>> readout_value("DTTGSASD")
"no binding"
>>> readout_value("YATGDDVA")
"no binding"
>>> readout_value("YKTGGAGV")
"binds"
>>> readout_value("YRKGGAWF")
"binds"
>>> readout_value("VEGTSSGD")
"no binding"
>>> readout_value("VRGGDDWF")
"no binding"
>>> readout_value("VAATADVA")
"no binding"
>>> readout_value("FRGGSSAA")
"binds"
>>> readout_value("YRTRGASD")
"binds"
>>> readout_value("YRRGGSGD")
"binds"
>>> readout_value("YKGKGFGF")
"binds"
>>> readout_value("FAGGGDAV")
"no binding"
>>> readout_value("SAAGGDVA chain 1 L45S")
"no binding"
>>> readout_value("YRTRGSGY")
"binds"
>>> readout_value("YRGESSGF")
"binds"
>>> readout_value("YKGAASGV")
"binds"
>>> readout_value("VTGGGASF")
"no binding"
>>> readout_value("VRTRGSWD")
"binds"
>>> readout_value("VRGGSDVA")
"no binding"
>>> readout_value("VTEGDDVF")
"no binding"
>>> readout_value("YRKGSALD")
"binds"
>>> readout_value("VTRGASGA")
"no binding"
>>> readout_value("FTARSAGF")
"binds"
>>> readout_value("FRGKDASA")
"no binding"
>>> readout_value("VAGGGAAV")
"no binding"
>>> readout_value("FRKGSAVD")
"binds"
>>> readout_value("YRTGAALS")
"binds"
>>> readout_value("YRGAGAAD")
"binds"
>>> readout_value("VKEGGSAD")
"binds"
>>> readout_value("SKAGSDVA")
"no binding"
>>> readout_value("SREGGVVV")
"binds"
>>> readout_value("SKAKGFGV")
"binds"
>>> readout_value("YKGGSSGV")
"binds"
>>> readout_value("VKKEDAGD")
"no binding"
>>> readout_value("FRGRGSVY")
"binds"
>>> readout_value("VRGKGSSS")
"binds"
>>> readout_value("VRERGSWV")
"binds"
>>> readout_value("YRKGSAWD")
"binds"
>>> readout_value("VEGTNDVV")
"no binding"
>>> readout_value("VKREAVGV")
"binds"
